Values were extracted from ChEMBL document CHEMBL1131566.

# measurement_target: Glutamate receptor ionotropic, AMPA (Rattus norvegicus, UniProt P19490+P19491+P19492+P19493)
# assay_details: Inhibition of binding of [3H]AMPA to Ionotropic glutamate receptor AMPA
# Type: protein-complex assay
measured_parameter: IC50

// batch mode: one IC50 value per listed entry
1. Cc1[nH]c(C(=O)O)c(/C=C/C(=O)Nc2ccccc2)c1C
2. O=C(/C=C/c1c(C(=O)O)[nH]c(Br)c1Br)Nc1ccccc1

A)
1. > 100 µM
2. > 100 µM

* * *

# measurement_target: Glutamate receptor ionotropic, NMDA 1 (Rattus norvegicus)
Checkbox rule: Ki lower than 0.8 µM = TRUE; Ki not lower than 0.8 µM = FALSE.

Example entries and their recorded answers appear below.
- smiles_input: "Cc1c(C(C)C)[nH]c(C(=O)O)c1/C=C/C(=O)Nc1ccccc1"
  label: "FALSE"
- smiles_input: "Cc1[nH]c(C(=O)O)c(/C=C/C(=O)Nc2ccccc2)c1I"
  label: "TRUE"
- smiles_input: "Cc1[nH]c(C(=O)O)c(/C=C/C(=O)Nc2ccccc2)c1-c1ccccc1"
  label: "FALSE"
- smiles_input: "Cc1c(/C=C/C(=O)Nc2ccccc2)c(C(=O)O)n(C)c1C"
  label: "FALSE"
- smiles_input: "O=C(/C=C/c1c(C(=O)O)[nH]c(-c2ccccc2)c1-c1ccccc1)Nc1ccccc1"
  label: "FALSE"

Q) State whether 0.8 µM exceeds Ki recorded for CCc1c(C)[nH]c(C(=O)O)c1/C=C/C(=O)Nc1ccccc1 .
A) FALSE

Q) Find out if reported Ki for Cc1[nH]c(C(=O)O)c(/C=C/C(=O)Nc2ccccc2)c1C(C)C is less than 0.8 µM
A) TRUE

Q) For this molecule, is Ki lower than 0.8 µM? O=C(/C=C/c1c(-c2ccccc2)c[nH]c1C(=O)O)Nc1ccccc1
A) FALSE

Q) # TODO verify Ki < 0.8 µM strictly for this molecule: O=C(/C=C/c1c(C(=O)O)[nH]c(Br)c1Br)Nc1ccccc1
A) TRUE

Q) Field: below-cutoff. Rule: recorded Ki strictly less than 0.8 µM. Subject: O=C(/C=C/c1c(C(=O)O)[nH]c(-c2ccccc2)c1Br)Nc1ccccc1
A) FALSE

Q) In the record for O=C(/C=C/c1cc[nH]c1C(=O)O)Nc1ccccc1 , is Ki less than 0.8 µM?
A) FALSE

Q) # TODO verify Ki < 0.8 µM strictly for this molecule: O=C(/C=C/c1cc(-c2ccccc2)[nH]c1C(=O)O)Nc1ccccc1
A) FALSE

Q) Is the reported Ki for Cc1[nH]c(C(=O)O)c(/C=C/C(=O)Nc2ccccc2)c1OCc1ccccc1 strictly below 0.8 µM?
A) FALSE

Q) API: query returns whether the molecule falls strictly under 0.8 µM in Ki. Query: Cc1c(-c2ccccc2)[nH]c(C(=O)O)c1/C=C/C(=O)Nc1ccccc1
A) FALSE

Q) Dear colleague, could you confirm whether Ki of Cc1c(-c2ccc(Cl)cc2Cl)[nH]c(C(=O)O)c1/C=C/C(=O)Nc1ccccc1 falls below 0.8 µM? Thanks.
A) FALSE

Q) Hi there! Is Ki for O=C(/C=C/c1c(C(=O)O)[nH]c2c1CCCC2)Nc1ccccc1 below 0.8 µM, do you know?
A) TRUE

* * *

// values below are pIC50; system is UniProtKB P35439
One number for each entry, as −log10 of the molar value.

- smiles_input: "O=C(O)CCc1c(C(=O)O)[nH]c2cc(Cl)cc(Cl)c12"
  measured_parameter: "pIC50"
  measured_result: 6.85

# input for lookup
Q) For O=C(Nc1ccccc1)N[C@H]1C[C@H](C(=O)O)Nc2cc(Cl)cc(Cl)c21 , write its pIC50.
A) 8.11
